The measured values listed here are drawn from the NIST ThermoML archive (doi:10.1021/acs.jced.8b00213).

test: xn = mol fraction of the nth substance listed; conditions: 323.15 K; 100 kPa; Liquid; Vibrating tube method; x1 = 0.25

# compound, mass density [kg/m3]
rows = [
    ("CCCC[N+](CCCC)(CCCC)Cc1ccccc1.[Cl-] [benzyltributylammonium chloride] + OCCO", 1020.13),
    ("CCCC[N+](CCCC)(CCCC)Cc1ccccc1.[Cl-] [benzyltributylammonium chloride] + OCC(O)CO", 1086.95),
    ("C[N+](C)(C)Cc1ccccc1.[Cl-] [trimethylbenzylammonium chloride] + OCC(O)CO", 1167.23),
    ("C[N+](C)(C)Cc1ccccc1.[Cl-] [trimethylbenzylammonium chloride] + OCCO", 1085.83),
    ("CCCC[N+](CCCC)(CCCC)Cc1ccccc1.[Cl-] [benzyltributylammonium chloride] + OCCOCCOCCO", 1051.7),
    ("C[N+](C)(C)Cc1ccccc1.[Cl-] [trimethylbenzylammonium chloride] + OCCOCCO", 1094.99),
    ("CCCC[N+](CCCC)(CCCC)Cc1ccccc1.[Cl-] [benzyltributylammonium chloride] + OCCOCCO", 1039.12),
    ("C[N+](C)(C)Cc1ccccc1.[Cl-] [trimethylbenzylammonium chloride] + OCCOCCOCCO", 1100.54),
]

###

test: xn = mol fraction of the nth substance listed; conditions: 343.15 K; 100 kPa; Liquid; Alternating current cell with electrodes; x1 = 0.25
Simple rule here: electrical conductivity less than 0.2 S/m is criterion met, otherwise criterion not met.

# compound, group
data = [
    ("C[N+](C)(C)Cc1ccccc1.[Cl-] [trimethylbenzylammonium chloride] + OCC(O)CO", "criterion not met"),
    ("CCCC[N+](CCCC)(CCCC)Cc1ccccc1.[Cl-] [benzyltributylammonium chloride] + OCCO", "criterion not met"),
    ("CCCC[N+](CCCC)(CCCC)Cc1ccccc1.[Cl-] [benzyltributylammonium chloride] + OCCOCCO", "criterion not met"),
    ("C[N+](C)(C)Cc1ccccc1.[Cl-] [trimethylbenzylammonium chloride] + OCCOCCOCCO", "criterion not met"),
    ("C[N+](C)(C)Cc1ccccc1.[Cl-] [trimethylbenzylammonium chloride] + OCCO", "criterion not met"),
    ("C[N+](C)(C)Cc1ccccc1.[Cl-] [trimethylbenzylammonium chloride] + OCCOCCO", "criterion not met"),
    ("CCCC[N+](CCCC)(CCCC)Cc1ccccc1.[Cl-] [benzyltributylammonium chloride] + OCC(O)CO", "criterion met"),
    ("CCCC[N+](CCCC)(CCCC)Cc1ccccc1.[Cl-] [benzyltributylammonium chloride] + OCCOCCOCCO", "criterion met"),
]

###

assay: xn = mol fraction of the nth substance listed; conditions: 283.15 K; 100 kPa; Liquid; Alternating current cell with electrodes; x1 = 0.25

# molecule, electrical conductivity [S/m]
records = [
    ("C[N+](C)(C)Cc1ccccc1.[Cl-] [trimethylbenzylammonium chloride] + OCC(O)CO", 0.012),
    ("C[N+](C)(C)Cc1ccccc1.[Cl-] [trimethylbenzylammonium chloride] + OCCOCCO", 0.088),
    ("CCCC[N+](CCCC)(CCCC)Cc1ccccc1.[Cl-] [benzyltributylammonium chloride] + OCCOCCOCCO", 0.013),
    ("CCCC[N+](CCCC)(CCCC)Cc1ccccc1.[Cl-] [benzyltributylammonium chloride] + OCCOCCO", 0.019),
    ("CCCC[N+](CCCC)(CCCC)Cc1ccccc1.[Cl-] [benzyltributylammonium chloride] + OCCO", 0.03),
    ("C[N+](C)(C)Cc1ccccc1.[Cl-] [trimethylbenzylammonium chloride] + OCCO", 0.263),
    ("CCCC[N+](CCCC)(CCCC)Cc1ccccc1.[Cl-] [benzyltributylammonium chloride] + OCC(O)CO", 0.003),
    ("C[N+](C)(C)Cc1ccccc1.[Cl-] [trimethylbenzylammonium chloride] + OCCOCCOCCO", 0.048),
]
